Ref: the supplement of paper PMC10065799

# reported phosphorylation enrichment; entries follow
Tested on: Fer (mouse)
procedure.text: phosphorylation enrichment, bacterial display (enrichment ratio); higher = better substrate or ligand; peptides without Tyr show the background;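 note: 11-residue human phosphosite peptides and single-mutation variants displayed on the E. coli surface, counted by deep sequencing, each peptide's frequency after selection divided by its frequency in the unselected input library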;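 note: frequency after pTyr selection over input frequency; kinase dosed for 20-30% of maximal phosphorylation in three min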
Form rule: numeric answer, no unit written next to it.

See these solved cases before continuing.
{"seq": "SFPPTYRFERG [INPPL1_Y661_YF]", "phosphorylation enrichment": 0.362}
{"seq": "NYSKMYCNPDA [KNL1_Y489_A486S]", "phosphorylation enrichment": 0.435}
{"seq": "EALSLYTKLMN [STAM_Y371]", "phosphorylation enrichment": 0.509}
{"seq": "MKGDFYRSLAE [YWHAG_Y131_Y133S_YF]", "phosphorylation enrichment": 0.467}

Query block: What measured phosphorylation enrichment goes with QQPGPYDRPGA [HNRNPH2_Y210_R206Q] ?
Result block: 0.551

Query block: What measured phosphorylation enrichment goes with FSTDFYRVGGH [NTRK2_Y707_YF] ?
Result block: 0.471

Query block: What measured phosphorylation enrichment goes with EATKVYLDDPT [G6PD_Y322_G321V] ?
Result block: 0.451

Query block: What measured phosphorylation enrichment goes with AGLVQYFMEHH [PTPN11_Y80_E76G_YF] ?
Result block: 0.474

Query block: What measured phosphorylation enrichment goes with GYIISYREEEQ ?
Result block: 0.596

Query block: What measured phosphorylation enrichment goes with PRSRSYFSTSI [REPS2_Y462_S463F] ?
Result block: 0.436

Query block: What measured phosphorylation enrichment goes with SVMVPYEPPEV [TP53_Y220_V217M] ?
Result block: 0.56

Query block: What measured phosphorylation enrichment goes with YISLIYTNYEA [GSTP1_Y109] ?
Result block: 1.72

Query block: What measured phosphorylation enrichment goes with NCFKYYMSDDI [ATRX_Y204] ?
Result block: 0.496

Query block: What measured phosphorylation enrichment goes with RHLQEYQDPLN [GFAP_Y349_L352P] ?
Result block: 0.472

----------
study.system: EPHB2 (UniProt P29323)
Sequence (P29323 whole entry, looked up): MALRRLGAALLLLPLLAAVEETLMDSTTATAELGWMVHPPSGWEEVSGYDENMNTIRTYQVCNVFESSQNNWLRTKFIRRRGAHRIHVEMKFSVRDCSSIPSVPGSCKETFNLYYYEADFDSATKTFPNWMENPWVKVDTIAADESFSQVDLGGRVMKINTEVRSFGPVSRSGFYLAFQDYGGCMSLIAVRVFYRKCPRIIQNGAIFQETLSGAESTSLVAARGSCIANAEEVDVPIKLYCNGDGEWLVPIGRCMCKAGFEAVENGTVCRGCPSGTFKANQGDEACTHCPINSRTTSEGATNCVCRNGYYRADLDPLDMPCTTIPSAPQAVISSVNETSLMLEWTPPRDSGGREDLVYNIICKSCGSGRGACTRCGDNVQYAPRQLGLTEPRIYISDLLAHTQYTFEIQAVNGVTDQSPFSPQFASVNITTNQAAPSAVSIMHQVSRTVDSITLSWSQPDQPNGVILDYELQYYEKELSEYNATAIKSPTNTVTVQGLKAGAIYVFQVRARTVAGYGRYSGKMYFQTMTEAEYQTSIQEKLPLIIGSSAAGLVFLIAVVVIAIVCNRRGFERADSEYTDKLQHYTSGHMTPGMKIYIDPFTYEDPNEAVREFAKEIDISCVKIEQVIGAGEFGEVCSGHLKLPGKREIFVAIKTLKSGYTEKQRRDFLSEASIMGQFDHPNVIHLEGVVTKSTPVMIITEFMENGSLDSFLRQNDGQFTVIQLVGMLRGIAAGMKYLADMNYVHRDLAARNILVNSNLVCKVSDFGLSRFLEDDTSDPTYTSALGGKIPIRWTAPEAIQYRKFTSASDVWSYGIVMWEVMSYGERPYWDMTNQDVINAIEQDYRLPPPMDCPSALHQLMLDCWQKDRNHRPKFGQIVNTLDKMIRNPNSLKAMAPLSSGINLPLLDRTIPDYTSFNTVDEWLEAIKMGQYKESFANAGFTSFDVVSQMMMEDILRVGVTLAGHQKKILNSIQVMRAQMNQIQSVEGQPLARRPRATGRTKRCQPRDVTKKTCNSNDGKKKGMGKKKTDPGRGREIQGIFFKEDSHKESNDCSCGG
procedure.text: phosphorylation enrichment, bacterial display (enrichment ratio); higher = better substrate or ligand; peptides without Tyr show the background
assay.metric: phosphorylation enrichment
Form rule: numeric answer, no unit written next to it.

{"seq": "HPWPQYTTRAP [FNDC1_Y1281]", "phosphorylation enrichment": 0.594}

Query block: Write down the reported phosphorylation enrichment of LKGQVYILGGE [ASS1_Y359_R363G] , test system: EPHB2 (UniProt P29323).
Result block: 1.07

Query block: Write down the reported phosphorylation enrichment of YAREGYSALPQ [SARS2_Y52] , test system: EPHB2 (UniProt P29323).
Result block: 0.459

----------
System: Fer (mouse)
procedure.text: phosphorylation enrichment, bacterial display (enrichment ratio); higher = better substrate or ligand; peptides without Tyr show the background
assay.metric: phosphorylation enrichment
Form rule: numeric answer, no unit written next to it.

See these solved cases before continuing.
{"seq": "MSSHHCDFKKF [ZNF445_Y428_Y428C_YF]", "assay.metric": "phosphorylation enrichment", "numeric.result": 0.43}
{"seq": "TTKGAYSLSIR [YES1_Y194]", "assay.metric": "phosphorylation enrichment", "numeric.result": 0.383}
{"seq": "GRKTLYSFFSP [UNG_Y8_Q4R]", "assay.metric": "phosphorylation enrichment", "numeric.result": 3.82}
{"seq": "VTRANYFIRDE [GNAS_Y339_K338N]", "assay.metric": "phosphorylation enrichment", "numeric.result": 0.45}
{"seq": "VASMFYTLVIP [OR8K3_Y277_I275M]", "assay.metric": "phosphorylation enrichment", "numeric.result": 3.5}

Query block: What measured phosphorylation enrichment goes with SPPEVYAIMRG [NTRK1_Y757_C752S] ?
Result block: 0.525

Query block: What measured phosphorylation enrichment goes with DKATEYIQFMR [MAX_Y70_YF] ?
Result block: 0.439

Query block: What measured phosphorylation enrichment goes with VRTGIYHGREP [PIK3CA_Y361_G364R] ?
Result block: 0.374

Query block: What measured phosphorylation enrichment goes with RYLTRYIYNRE [HLA-DQB1_Y62_V59L] ?
Result block: 0.813

Query block: What measured phosphorylation enrichment goes with MEFAKYGSLRG [RET_Y809_V804M_YF] ?
Result block: 0.348

Query block: What measured phosphorylation enrichment goes with ACRSLYGGFVE [MVD_Y164] ?
Result block: 0.605

Query block: What measured phosphorylation enrichment goes with MSRNLYSGDCY [DDR2_Y736_Y740C] ?
Result block: 0.811

Query block: What measured phosphorylation enrichment goes with FESPRYLQVRI [FANCA_Y488_H492R] ?
Result block: 0.589

Query block: What measured phosphorylation enrichment goes with AEPTGYSAELS [EZR_Y499] ?
Result block: 0.535

Query block: What measured phosphorylation enrichment goes with PVGDVYKKKGL [NMNAT1_Y55_A54V] ?
Result block: 0.487

Query block: What measured phosphorylation enrichment goes with AHAGEYGVEAL [HBA1_Y25_A27V] ?
Result block: 0.448

Query block: What measured phosphorylation enrichment goes with SSEFHCVGGFF [CTSC_Y347_Y347C_YF] ?
Result block: 0.521

----------
study.system: EPHB1 (UniProt P54762)
Sequence (P54762 whole entry, looked up): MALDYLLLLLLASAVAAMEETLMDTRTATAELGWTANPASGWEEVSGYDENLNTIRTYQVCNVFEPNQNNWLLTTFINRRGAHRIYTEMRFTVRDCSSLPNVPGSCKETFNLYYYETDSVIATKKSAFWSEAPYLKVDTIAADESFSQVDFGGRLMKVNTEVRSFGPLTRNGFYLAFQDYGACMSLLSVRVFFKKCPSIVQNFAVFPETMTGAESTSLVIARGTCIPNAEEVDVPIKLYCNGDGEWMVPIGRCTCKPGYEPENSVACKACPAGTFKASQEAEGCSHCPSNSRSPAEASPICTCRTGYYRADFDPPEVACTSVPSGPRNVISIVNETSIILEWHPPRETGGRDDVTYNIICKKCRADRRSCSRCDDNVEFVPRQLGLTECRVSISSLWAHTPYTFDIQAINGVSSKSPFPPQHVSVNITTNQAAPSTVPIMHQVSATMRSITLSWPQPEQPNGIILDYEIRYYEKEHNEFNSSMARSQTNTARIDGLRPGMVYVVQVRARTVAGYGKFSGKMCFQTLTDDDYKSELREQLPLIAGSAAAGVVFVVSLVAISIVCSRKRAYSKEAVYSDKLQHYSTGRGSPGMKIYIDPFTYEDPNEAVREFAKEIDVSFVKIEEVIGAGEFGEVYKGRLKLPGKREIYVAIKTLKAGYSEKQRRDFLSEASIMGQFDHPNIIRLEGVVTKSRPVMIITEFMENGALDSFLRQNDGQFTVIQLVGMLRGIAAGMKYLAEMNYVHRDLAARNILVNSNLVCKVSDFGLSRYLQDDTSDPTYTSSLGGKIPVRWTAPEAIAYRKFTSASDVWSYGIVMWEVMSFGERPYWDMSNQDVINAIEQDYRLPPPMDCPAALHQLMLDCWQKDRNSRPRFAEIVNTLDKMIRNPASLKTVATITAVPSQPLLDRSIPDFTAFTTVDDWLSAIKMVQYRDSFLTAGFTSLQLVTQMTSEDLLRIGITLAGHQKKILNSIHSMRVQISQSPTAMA
procedure.text: phosphorylation enrichment, bacterial display (enrichment ratio); higher = better substrate or ligand; peptides without Tyr show the background
# reported phosphorylation enrichment; entries follow
Form rule: numeric answer, no unit written next to it.

See these solved cases before continuing.
{"seq": "EFFDGYWGFSV [ITGA2B_Y265_YF]", "phosphorylation enrichment": 0.633}
{"seq": "NYSKMYCNPDA [KNL1_Y489_A486S]", "phosphorylation enrichment": 0.536}
{"seq": "RRIHSYRGYLW [VHL_Y112_H115Y]", "phosphorylation enrichment": 0.614}
{"seq": "REIHDYIKHLG [UNC13C_Y308_D304E]", "phosphorylation enrichment": 0.699}
{"seq": "FKNGDYNEVMK [LCT_Y1638]", "phosphorylation enrichment": 0.578}

Query block: What measured phosphorylation enrichment goes with RKRQFYLYKGK [RSPO4_Y112_C107R] ?
Result block: 0.343

Query block: What measured phosphorylation enrichment goes with DAVCFYRMENA [NPHS2_Y195_I192V_YF] ?
Result block: 0.698

Query block: What measured phosphorylation enrichment goes with NDDDVYRSLEE [VAV2_Y142] ?
Result block: 0.6

Query block: What measured phosphorylation enrichment goes with TLQNMYGCDVG [HLA-B_Y123_S121N] ?
Result block: 0.702

Query block: What measured phosphorylation enrichment goes with YTHSDYQYGQR [PKP2_Y166_S169G] ?
Result block: 0.436

Query block: What measured phosphorylation enrichment goes with RGNKEYKEEKR [LENG1_Y96_E97K] ?
Result block: 0.369

Query block: What measured phosphorylation enrichment goes with ADNSAYLMGLN [MYH7_Y386_K383N] ?
Result block: 0.629

Query block: What measured phosphorylation enrichment goes with TYAVSYLPDMS [FLNC_Y1602_T1599A] ?
Result block: 0.559

Query block: What measured phosphorylation enrichment goes with ITVCDYTNPCT [MYD88_Y276] ?
Result block: 0.583

Query block: What measured phosphorylation enrichment goes with RVNSAYQDKVS [ACAN_Y100] ?
Result block: 0.642

Query block: What measured phosphorylation enrichment goes with KSPGEYVNIEF [IRS1_Y896] ?
Result block: 0.653

Query block: What measured phosphorylation enrichment goes with DLGIQYKALKP [CTNNA1_Y177] ?
Result block: 0.568

Query block: What measured phosphorylation enrichment goes with LEDPMYDIIRD [RP9_Y142_H137L] ?
Result block: 4.98

Query block: What measured phosphorylation enrichment goes with ENELTYYCYKK [CD59_Y86_C89Y] ?
Result block: 0.794

----------
study.system: FGFR1 (UniProt P11362)
Sequence (P11362 whole entry, looked up): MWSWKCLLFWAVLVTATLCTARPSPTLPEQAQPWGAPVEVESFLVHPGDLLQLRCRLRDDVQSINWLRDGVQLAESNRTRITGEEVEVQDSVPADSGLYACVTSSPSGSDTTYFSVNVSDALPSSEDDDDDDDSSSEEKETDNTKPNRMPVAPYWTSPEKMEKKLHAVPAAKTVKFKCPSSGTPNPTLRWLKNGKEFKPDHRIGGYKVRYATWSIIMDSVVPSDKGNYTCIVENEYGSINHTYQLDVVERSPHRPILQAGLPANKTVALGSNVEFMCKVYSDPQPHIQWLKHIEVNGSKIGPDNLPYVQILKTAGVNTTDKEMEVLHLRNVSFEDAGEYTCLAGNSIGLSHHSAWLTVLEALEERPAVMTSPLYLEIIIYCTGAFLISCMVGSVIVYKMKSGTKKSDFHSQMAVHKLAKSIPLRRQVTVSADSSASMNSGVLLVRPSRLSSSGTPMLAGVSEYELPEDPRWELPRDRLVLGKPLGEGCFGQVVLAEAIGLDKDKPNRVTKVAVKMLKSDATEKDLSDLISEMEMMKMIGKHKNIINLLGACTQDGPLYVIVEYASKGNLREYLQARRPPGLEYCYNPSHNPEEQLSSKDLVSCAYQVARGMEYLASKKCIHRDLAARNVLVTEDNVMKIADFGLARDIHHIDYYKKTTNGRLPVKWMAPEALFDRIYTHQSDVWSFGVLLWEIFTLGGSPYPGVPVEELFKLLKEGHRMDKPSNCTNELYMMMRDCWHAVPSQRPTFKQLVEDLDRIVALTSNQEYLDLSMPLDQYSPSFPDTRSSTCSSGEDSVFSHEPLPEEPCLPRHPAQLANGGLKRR
procedure.text: phosphorylation enrichment, bacterial display (enrichment ratio); higher = better substrate or ligand; peptides without Tyr show the background
Rule: phosphorylation enrichment of 0.6 or more gives 1.0; anything lower gives 0.0.

Completed entries (count: 4):
{"seq": "MKKMHYVDPDR [ST3GAL5_Y99_H104R]", "category.label": 0.0}
{"seq": "NELTYYCYKKD [CD59_Y87_C89Y]", "category.label": 1.0}
{"seq": "KSPGEYVNIEF [IRS1_Y896]", "category.label": 1.0}
{"seq": "RIFDFYSARKA [STOX1_Y858_YF]", "category.label": 1.0}

Query block: Test whether the sequence TSQSQYFSFRE [CCDC170_Y323] records phosphorylation enrichment of 0.6 or higher.
Result block: 1.0

Query block: Test whether the sequence CTTIHYNFMCK [TP53_Y234_N239K_YF] records phosphorylation enrichment of 0.6 or higher.
Result block: 0.0

Query block: Test whether the sequence FEPDAYDDLDQ [ELP5_Y302_YF] records phosphorylation enrichment of 0.6 or higher.
Result block: 0.0

Query block: Test whether the sequence CVRTIYTIDGS [DCLK2_Y124_G119C] records phosphorylation enrichment of 0.6 or higher.
Result block: 0.0
